From: PubChem BioAssay AID2060492

system: 695427-040-R-J1-PDC complex spheroids, viability percent T/C; test: Anticancer human tumor 695427-040-R-J1-PDC patient-derived colon adenocarcinoma cell line growth inhibition [GQUAD]; conditions: second compound 0.1 µM; first compound 1 µM; hits give low values
test_readout: viability, T/C (%)
Reply with just the number (in %).

// known answers, use as guide
molecule="O=C(c1cc(Cc2n[nH]c(=O)c3ccccc23)ccc1F)N1CCN(C(=O)C2CC2)CC1 + Cc1cnc(CNC(=O)c2c(=O)c3ccc(N4CCCN(C)CC4)nc3n3c2sc2ccccc23)cn1" units_of_measure=% observed_measurement=57
molecule="CC(C)(O)C1CCC(Nc2ccc3ncc(-c4cccc(C(F)(F)F)c4)n3n2)CC1 (stereo not given) + Cc1[nH]c2ccc(F)cc2c1-c1nc2c3cccnc3c3ncccc3c2[nH]1" units_of_measure=% observed_measurement=100
molecule="COc1cccc2c1C(=O)c1c(O)c3c(c(O)c1C2=O)CC(O)(C(=O)CO)CC3OC1CC(N)C(O)C(C)O1 (stereo not given) + Cc1cnc(CNC(=O)c2c(=O)c3ccc(N4CCCN(C)CC4)nc3n3c2sc2ccccc23)cn1" units_of_measure=% observed_measurement=62.3
molecule="CC1COCCN1c1cc(C2(O)CC3CCC(C2)O3)c2cnn(-c3ccn[nH]3)c2n1 (stereo not given) + CN(C)c1ccc(Nc2c3ccc(NC(=O)CCN4CCCC4)cc3nc3cc(NC(=O)CCN4CCCC4)ccc23)cc1" units_of_measure=% observed_measurement=57.2

# context switch: different molecule, same viability, T/C
Specify reported viability, T/C for the molecule shown: O=C(c1cc(Cc2n[nH]c(=O)c3ccccc23)ccc1F)N1CCN(C(=O)C2CC2)CC1 + CN(C)c1ccc(Nc2c3ccc(NC(=O)CCN4CCCC4)cc3nc3cc(NC(=O)CCN4CCCC4)ccc23)cc1
95.9

----------
Attribute: viability, T/C
system: 695427-040-R-J1-PDC complex spheroids, viability percent T/C; test: Anticancer human tumor 695427-040-R-J1-PDC cell line growth inhibition [GQUAD]; settings: second compound 0.0316 µM; first compound 0.0316 µM; hits give low values;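 note: spheroids exposed to compounds for seven days before readout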

# count of solved cases: 2
compound="COc1cc(C2c3cc4c(cc3C(OC3OC5COC(C)OC5C(O)C3O)C3COC(=O)C23)OCO4)cc(OC)c1O (stereo not drawn) + Cc1[nH]c2ccc(F)cc2c1-c1nc2c3cccnc3c3ncccc3c2[nH]1" observed_measurement=118%
compound="CC(=O)O[C@H]1C(=O)[C@@]2(C)[C@H]([C@H](OC(=O)c3ccccc3)[C@]3(O)C[C@H](OC(=O)[C@H](O)[C@@H](NC(=O)c4ccccc4)c4ccccc4)C(C)=C1C3(C)C)[C@]1(OC(C)=O)CO[C@@H]1C[C@@H]2O + Cc1[nH]c2ccc(F)cc2c1-c1nc2c3cccnc3c3ncccc3c2[nH]1" observed_measurement=99.4%

Complete the entry with viability, T/C for O=c1[nH]cc(F)c(=O)[nH]1 + Cc1[nH]c2ccc(F)cc2c1-c1nc2c3cccnc3c3ncccc3c2[nH]1
102%

----------
test system: 695427-040-R-J1-PDC complex spheroids, viability percent T/C; assay: Anticancer human tumor 695427-040-R-J1-PDC cell line growth inhibition [GQUAD]; details: second compound 0.316 µM; first compound 1 µM; hits give low values;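 note: spheroids exposed to compounds for seven days before readout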
test_readout: viability, T/C (%)
Your answer is read as %, so omit the unit and give the number.

Solved entries:
compound="O=c1[nH]cc(F)c(=O)[nH]1 + Cc1cnc(CNC(=O)c2c(=O)c3ccc(N4CCCN(C)CC4)nc3n3c2sc2ccccc23)cn1" test_readout="viability, T/C" units_of_measure=% observed_measurement=67.9
compound="C=CC(=O)N1CCN(c2nc(=O)n(-c3c(C)ccnc3C(C)C)c3nc(-c4c(O)cccc4F)c(F)cc23)C(C)C1 (stereo not drawn) + Cc1cnc(CNC(=O)c2c(=O)c3ccc(N4CCCN(C)CC4)nc3n3c2sc2ccccc23)cn1" test_readout="viability, T/C" units_of_measure=% observed_measurement=73.9

Now, please, on to the next compound.
Give reported viability, T/C value for CC1COCCN1c1cc(C2(O)CC3CCC(C2)O3)c2cnn(-c3ccn[nH]3)c2n1 (stereo not drawn) + Cc1cnc(CNC(=O)c2c(=O)c3ccc(N4CCCN(C)CC4)nc3n3c2sc2ccccc23)cn1
26.8

----------
Below, each of the compounds is paired with its reported viability, T/C value.
test system: 695427-040-R-J1-PDC complex spheroids, viability percent T/C; experiment: Anticancer human tumor 695427-040-R-J1-PDC cell line growth inhibition [GQUAD]; settings: second compound 1 µM; first compound 0.316 µM; hits give low values;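 note: spheroids exposed to compounds for seven days before readout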

compound="Nc1ccn(C2OC(CO)C(O)C2(F)F)c(=O)n1 (stereo not given) + Cc1cnc(CNC(=O)c2c(=O)c3ccc(N4CCCN(C)CC4)nc3n3c2sc2ccccc23)cn1" observed_measurement=54.9%

Report the value of viability, T/C obtained on 695427-040-R-J1-PDC complex spheroids, viability percent T/C for O=C(c1cc(Cc2n[nH]c(=O)c3ccccc23)ccc1F)N1CCN(C(=O)C2CC2)CC1 + Cc1cnc(CNC(=O)c2c(=O)c3ccc(N4CCCN(C)CC4)nc3n3c2sc2ccccc23)cn1 .
53.8%

Give viability, T/C; test system 695427-040-R-J1-PDC complex spheroids, viability percent T/C; compound CCc1c2c(nc3ccc(O)cc13)-c1cc3c(c(=O)n1C2)COC(=O)[C@]3(O)CC + CN(C)c1ccc(Nc2c3ccc(NC(=O)CCN4CCCC4)cc3nc3cc(NC(=O)CCN4CCCC4)ccc23)cc1
51%

Consider the compound CC[C@@]1(O)C(=O)OCc2c1cc1n(c2=O)Cc2cc3c(CN(C)C)c(O)ccc3nc2-1 + Cc1cnc(CNC(=O)c2c(=O)c3ccc(N4CCCN(C)CC4)nc3n3c2sc2ccccc23)cn1 tested on 695427-040-R-J1-PDC complex spheroids, viability percent T/C; state its viability, T/C.
63.8%

Report viability, T/C from 695427-040-R-J1-PDC complex spheroids, viability percent T/C testing of COc1cc(C2c3cc4c(cc3C(OC3OC5COC(C)OC5C(O)C3O)C3COC(=O)C23)OCO4)cc(OC)c1O (stereo not given) + CN(C)c1ccc(Nc2c3ccc(NC(=O)CCN4CCCC4)cc3nc3cc(NC(=O)CCN4CCCC4)ccc23)cc1
94.4%

----------
Test system: 695427-040-R-J1-PDC complex spheroids, viability percent T/C
Assay: Anticancer human tumor 695427-040-R-J1-PDC cell line growth inhibition [GQUAD];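 note: spheroids exposed to compounds for seven days before readout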
Details: second compound 3.16 µM; first compound 1 µM; hits give low values
Text: DNA G-quadruplex Stabilizer Agents in Combinations in Complex Spheroids A high-throughput screen of multi-cell type tumor spheroids was designed to identify active combinations of DNA G-quadruplex stabilizer agents and targeted small molecules. […] Compounds. […] If the clinical Cmax for an agent had not been determined, the highest concentration tested was 10 microM. […]
test_readout: viability, T/C (%)
The reply should be a number in %, with the unit left off.

Would you please look over these solved cases?
compound="O=C(NO)c1cnc(N2CCN(S(=O)(=O)c3ccc4ccccc4c3)CC2)nc1 + Cc1cnc(CNC(=O)c2c(=O)c3ccc(N4CCCN(C)CC4)nc3n3c2sc2ccccc23)cn1" test_readout="viability, T/C" observed_measurement=0.14
compound="CC1COCCN1c1cc(C2(O)CC3CCC(C2)O3)c2cnn(-c3ccn[nH]3)c2n1 (centres undefined) + Cc1cnc(CNC(=O)c2c(=O)c3ccc(N4CCCN(C)CC4)nc3n3c2sc2ccccc23)cn1" test_readout="viability, T/C" observed_measurement=16.9
compound="C#Cc1c(F)ccc2cc(O)cc(-c3ncc4c(N5CC6CCC(C5)N6)nc(OCC56CCCN5CC(F)C6)nc4c3F)c12 (centres undefined) + CN(C)c1ccc(Nc2c3ccc(NC(=O)CCN4CCCC4)cc3nc3cc(NC(=O)CCN4CCCC4)ccc23)cc1" test_readout="viability, T/C" observed_measurement=87.7
compound="C=CC(=O)N1CCN(c2nc(=O)n(-c3c(C)ccnc3C(C)C)c3nc(-c4c(O)cccc4F)c(F)cc23)C(C)C1 (centres undefined) + Cc1[nH]c2ccc(F)cc2c1-c1nc2c3cccnc3c3ncccc3c2[nH]1" test_readout="viability, T/C" observed_measurement=86.5
compound="CC(=O)O[C@H]1C(=O)[C@@]2(C)[C@H]([C@H](OC(=O)c3ccccc3)[C@]3(O)C[C@H](OC(=O)[C@H](O)[C@@H](NC(=O)c4ccccc4)c4ccccc4)C(C)=C1C3(C)C)[C@]1(OC(C)=O)CO[C@@H]1C[C@@H]2O + CN(C)c1ccc(Nc2c3ccc(NC(=O)CCN4CCCC4)cc3nc3cc(NC(=O)CCN4CCCC4)ccc23)cc1" test_readout="viability, T/C" observed_measurement=84.3

Return viability, T/C (reported value) for this compound: COc1ccc([C@@H](O)c2cc(-c3ncnc4cc(N5CCOCC5)ccc34)c(F)cc2Cl)nn1 + Cc1[nH]c2ccc(F)cc2c1-c1nc2c3cccnc3c3ncccc3c2[nH]1
58.1

Assign viability, T/C to the following record: CC(=O)O[C@H]1C(=O)[C@@]2(C)[C@H]([C@H](OC(=O)c3ccccc3)[C@]3(O)C[C@H](OC(=O)[C@H](O)[C@@H](NC(=O)c4ccccc4)c4ccccc4)C(C)=C1C3(C)C)[C@]1(OC(C)=O)CO[C@@H]1C[C@@H]2O + Cc1[nH]c2ccc(F)cc2c1-c1nc2c3cccnc3c3ncccc3c2[nH]1
7.14

Return viability, T/C for the following compound: C=CC(=O)N1CCN(c2nc(=O)n(-c3c(C)ccnc3C(C)C)c3nc(-c4c(O)cccc4F)c(F)cc23)C(C)C1 (centres undefined) + Cc1cnc(CNC(=O)c2c(=O)c3ccc(N4CCCN(C)CC4)nc3n3c2sc2ccccc23)cn1
54.4

Identify measured viability, T/C corresponding to O=C(c1cc(Cc2n[nH]c(=O)c3ccccc23)ccc1F)N1CCN(C(=O)C2CC2)CC1 + Cc1[nH]c2ccc(F)cc2c1-c1nc2c3cccnc3c3ncccc3c2[nH]1
69.1
